Where these numbers come from: PubChem BioAssay (NCI)

tested on: SW-620 colon; assay: NCI-60 one-dose screen, 48 h (100 = growth as untreated, 0 = no growth, -100 = all killed); conditions: 10 µM unless noted
Compounds without any hit were thinned out: in the full panel of roughly 83,000, 20% have a hit.
The recorded growth of each item maps onto one of these classes: lowest = under 20%, middle = from 20% up to 80%, highest = 80% and over

# MOLECULE, GROUP_LABEL
records = [
    ("COc1ccc(-c2cc(-c3ccc(Cl)cc3)nc3nc(N)nn23)cc1", "highest"),
    ("Oc1ccccc1-c1nnc(SCc2ccc(O)c3ncccc23)n1-c1ccccc1", "lowest"),
    ("Oc1ccc(CSc2nnc(-c3ccncc3)o2)c2cccnc12", "lowest"),
    ("COc1cc2cc(Oc3ccc(NC(=O)Nc4cccc(C(F)(F)F)c4)cc3)c(C)nc2cc1OCCN(C)C", "highest"),
    ("N/C(=N\\OC(=O)CSc1nc2ccccc2s1)c1ccc2ccccc2c1", "highest"),
    ("IP(CCCSc1n(Cc2ccc3ccccc3c2)c(-c2ccccc2)c(-c2ccccc2)[n+]1Cc1ccc2ccccc2c1)(c1ccccc1)(c1ccccc1)c1ccccc1", "middle"),
    ("NS(=O)(=O)c1ccc(Nc2nc(N/N=C/c3ccc(C(F)(F)F)cc3)nc(Nc3ccccc3)n2)cc1", "middle"),
    ("CCCCCCNC(=O)Oc1ccc(/C(=C(\\C)c2ccc(Cl)cc2)c2ccc(OCCN(C)C)cc2)cc1", "middle"),
]

*Q* Kindly identify the class of `COc1cnc2c(c1)C(=O)c1c-2n(CCCn2ccnc2)c(=O)c2cc(OC)c(OC)cc12` .
*A* lowest

*Q* Kindly identify the class of `C=CCn1c(SCC(=O)Nc2cccc(C(=O)/C=C/c3ccccc3Cl)c2)nc2ccccc2c1=O` .
*A* middle

*Q* Kindly identify the class of `N#Cc1c(-c2ccccc2)cc(-c2c[nH]c3ccccc23)nc1-c1c[nH]c2ccccc12` .
*A* highest

*Q* Kindly identify the class of CCN(CC)CCCC(C)NCC(=O)NC(c1ccc2c(c1)OCO2)c1cc(Cl)c2cccnc2c1O (configuration not stated) .
*A* middle

*Q* Kindly identify the class of CN(C)C(=O)C1=NC(CO)C(=O)N(c2ccc(Cl)cc2)N1 (configuration not stated) .
*A* highest

====

Exercise: state measured growth for each of the compounds provided.
test system: CAKI-1 renal; test: NCI-60 one-dose screen, 48 h (100 = growth as untreated, 0 = no growth, -100 = all killed); conditions: 10 µM
This is part of a sample that, as a whole, favours compounds with a hit. Of some 83,000 tested, about 20% had one in any assay.
Answers are plain numbers, in %.

# example entries with known answers
# COMPOUND, SYSTEM, growth, %
measured = [
    ("CN(C)C(=O)C1=NC(CO)C(=O)N(c2ccc(Cl)cc2)N1 (centres undefined)", "CAKI-1 renal", 92),
    ("CN(C)C(=O)c1ccccc1-n1cnc2ccccc2c1=O", "CAKI-1 renal", 90.1),
    ("O=C1C[C@@H](c2ccccc2)Oc2c(Cc3ccccc3O)c(O)c(Cc3cc(Cc4cc(Cc5ccccc5O)ccc4O)ccc3O)c(O)c21", "CAKI-1 renal", 75.5),
    ("CS(=O)(=O)c1nccc(-c2c(-c3ccc(F)c(OCCc4ccc(F)cc4)c3)nc3sccn23)n1", "CAKI-1 renal", 44.7),
    ("CN(c1ccc(Br)cc1)S(=O)(=O)c1ccc(-c2cnc(C3CC3)o2)cc1", "CAKI-1 renal", 36.9),
]

For every item below, please supply its growth.
1. CN(c1ccc(Cl)cc1)S(=O)(=O)c1ccc(-c2cnc(C3CC3)o2)cc1
2. Cc1ccc(-n2cc(/C=C/C(=O)c3ccc(S(C)(=O)=O)cc3)c(-c3ccc(S(C)(=O)=O)cc3)n2)cc1
3. CCCCCCNC(=O)Oc1ccc(/C(=C(/C)c2ccc(Cl)cc2)c2ccc(OCCN3CCCC3)cc2)cc1
4. C=CCn1c(SCC(=O)Nc2cccc(C(=O)/C=C/c3ccc(OC)c(OC)c3)c2)nc2ccccc2c1=O
5. CN1CCN(Cc2ccc(NC(=O)c3cncc(C#Cc4[nH]nc5ncncc45)c3)cc2C(F)(F)F)CC1
6. Cc1ccccc1NC1CC(=O)N(c2ccc(Cl)cc2Cl)C1=O (centres undefined)

*A*
[5.6, 89.2, 55.3, 75.7, 59.4, 89.9]

For every item below, please supply its growth.
1. O=C1CSC(=O)N1Cc1cc2ccccc2nc1Cl
2. Cc1cccc(NC(c2cc3cccc4ccc5cccc2c5c43)c2nnnn2C(C)(C)C)c1C (centres undefined)
3. O=C1c2c(c3c4cccnc4[nH]c3c3ccc4ccccc4c23)C(=O)N1CCN1CCNCC1
4. Cc1cc(NS(=O)(=O)c2ccc(-c3cnc(C4CC4)o3)cc2)ccc1I
5. COc1cc(C2=NN(C(C)=O)C(c3ccc(N4CCOCC4)cc3)C2)cc(OC)c1OC (centres undefined)
6. COC[C@@]1(C)CC[C@]2(C)CC[C@]3(C)C(=CC[C@@H]4[C@@]5(C)CCCNC(C)(C)[C@@H]5CC[C@]43C)C2C1 (some centres undefined)
7. COc1ccc(N)cc1C(=O)Nc1cccc(-c2cc(=O)c3c(OC)c(OC)c(OC)cc3o2)c1
8. COc1ccc(NC2=C(Cl)C(=O)C(C)=C(C)C2=O)cc1

*A*
1: 86.1; 2: 66.3; 3: 52.2; 4: 39.3; 5: 94.7; 6: 71.7; 7: 43.1; 8: 91.5
